These measurements were taken from paper PMC11046469.

Below, each entry is listed with its recorded IC50.
Measurement target: T1, 6xHis-tagged ENL YEATS domain, Q03111
T1 chain: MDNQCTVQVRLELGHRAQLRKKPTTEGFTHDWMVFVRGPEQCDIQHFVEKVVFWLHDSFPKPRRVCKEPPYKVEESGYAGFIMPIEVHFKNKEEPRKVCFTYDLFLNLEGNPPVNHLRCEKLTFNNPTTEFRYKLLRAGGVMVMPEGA
Experiment description: AlphaScreen
Condition: chain shown with the change; n = 3; parent: 62.6 nM
Value expressed in nM; do not type the unit.

These solved cases illustrate the format of a correct answer.
Binder	IC50, nM
YDVACYK [ENL-S1 Y4A]	718
YAVYCYK [ENL-S1 D2A]	52.2

Challenge: Report measured IC50; entry is ADVYCYK [ENL-S1 Y1A]
Response given: 248
